From: PubChem BioAssay AID179

# IC50 per entry
tested on: CEM cells HIV-1 protection, formazan growth assay; assay: NCI AIDS Antiviral Assay; details: measured here: growth of uninfected CEM cells
Lab book: enter the figure in µM, no units written.

Known IC50 results, listed for orientation:
| molecule | IC50, µM |
| --- | --- |
| CCOC(=O)c1ccc2c(=O)[nH]nc(CO)c2c1 | 117 |
| O=c1oc2ccccc2c(-c2ccc(O)cc2)c1Oc1ccccc1 | 20 |
| Cc1cc2c(cc1C)C(=O)/C(=N/Nc1ccc(F)cc1)CCO2 | 178 |

Item: CC(C)(CCNc1c2ccccc2nc2cccc([N+](=O)[O-])c12)[N+](C)(C)[O-] | IC50: 0.12

IC50 reported for this molecule COC(=O)C1(Cc2ccccc2)Cc2ccccc2C1=O (stereo not given) : 85.1

Form: molecule = O=c1oc2ccccc2c(O)c1C(c1ccc2c(c1)Cc1ccccc1-2)c1c(O)c2ccccc2oc1=O ; IC50 = 46.8

What the record says about N#C/C(=C\c1ccccc1)S(=O)(=O)/C(C#N)=C/c1ccc(O)c(O)c1 : IC50 is 29.5

----------
test system: CEM cells HIV-1 protection, formazan growth assay; test: NCI AIDS Antiviral Assay
measured-endpoint: EC50

Here is how some compounds turned out for EC50.
| compound | value |
| --- | --- |
| CC(C)N(C(=O)C12C3C4C5(C#N)C3C1(C#N)C5C42I)C(C)C (stereo not given) | > 617 µM |
| OC1OCC(COc2cc(Cl)c(Cl)cc2Cl)OC1O (stereo not given) | > 30.2 µM |
| O=[N+]([O-])c1ccc(COc2cccc3cccnc23)cc1 | > 200 µM |
| CCOc1ccccc1NC(=O)C(=O)C(/C(=N/N)C(=O)OC)c1nc2ccc([N+](=O)[O-])cc2[nH]c1=O (stereo not given) | > 263 µM |
| C=C1CN(S(=O)(=O)c2ccc(C)cc2)CCCN(CCCC)CCCN(S(=O)(=O)c2ccc(C)cc2)C1 | > 200 µM |

EC50 measured on CN1CCCn2c(nc3ccccc3c2=O)C1 = > 1100 µM

Lab book: EC50 of C(=C\c1ccc2ccccc2n1)/c1ccc2c(c1)OCO2 noted as > 200 µM

For record CCOCc1c(C)cc(C)c(C2C(C(=O)c3ccccc3)N3c4ccccc4C=CC3C2(C#N)C(=O)OCC)c1C (stereo not given) the listed EC50 is > 200 µM

Entry N#C/C(=C\c1ccc(O)c(O)c1)C(=O)NCCCCNC(=O)/C(C#N)=C/c1ccc(O)c(O)c1 — recorded EC50 = > 200 µM

Lookup result for O=C(N/N=C/c1cc(S(=O)(=O)O)c2cccnc2c1O)C(=O)N/N=C/c1cc(S(=O)(=O)O)c2cccnc2c1O ; measured EC50: > 200 µM

----------
test system: CEM cells HIV-1 protection, formazan growth assay; assay: NCI AIDS Antiviral Assay;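 active = compounds giving half or more protection of infected cells from virus-caused growth loss, again on retest; inactive = the rest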
Would you mind answering with one of these outcomes? 1 for active, -1 for inactive

Worked examples follow.
| compound | assigned-label |
| --- | --- |
| Nc1c(-c2nc3ccccc3[nH]2)sc(=S)n1-c1ccccc1 | -1 |
| O=Nc1sc(=N\O)/c(=N/O)sc1NO | -1 |
| CC1C=CC(C(=O)O)C2C(=O)OC(=O)C12 (configuration not stated) | -1 |

q: Answer briefly: the call reported for COc1cc(C=C2N=C(c3ccccc3)N(n3c(-c4ccccc4)nc4ccccc4c3=O)C2=O)cc(OC)c1OC in this assay.
a: -1

q: Please state the recorded outcome for this compound: CC(C)=CC(Cc1ccccc1)S(=O)(=O)c1nc2ccccc2s1 (configuration not stated)
a: -1

q: Hi, do you know how Cc1ccc(NC(=O)C(=O)C(C(=O)c2ccc3ccccc3c2)C2OC(=O)c3ccccc32)cc1C (configuration not stated) came out in this test?
a: -1

q: What is the recorded call for this compound in the test? OC1CC[C@H](Cl)C2=C1[C@@]13C[C@]14OCCC3OC2[C@@H]4Cl (some centres not stated)
a: -1

q: # outcome recorded in this test, key = CCC(=C(C#N)C#N)c1cc(OC)c(OC)c(OC)c1
a: -1

q: Test call for this compound, please: c1ccc(C2CN3CCSC3=N2)cc1 (configuration not stated)
a: -1

q: Which outcome was assigned to Clc1ccc(C2=C(c3ccccc3)C(c3ccc(Cl)cc3)N3C(=N[C@H]4CCCC[C@@H]43)N2)cc1 (some centres not stated) in this test?
a: -1

q: Record request — test call for O=C1CCCC/C1=C/C=C/c1ccccc1
a: -1

q: Hi, do you know how CN(C)C(=O)C(NCCO)c1ccccc1 (configuration not stated) came out in this test?
a: -1
